# study target: AmpC β-lactamase (Escherichia coli, UniProt P00811)
# Construct: made in house
# Sequence (P00811 20-377): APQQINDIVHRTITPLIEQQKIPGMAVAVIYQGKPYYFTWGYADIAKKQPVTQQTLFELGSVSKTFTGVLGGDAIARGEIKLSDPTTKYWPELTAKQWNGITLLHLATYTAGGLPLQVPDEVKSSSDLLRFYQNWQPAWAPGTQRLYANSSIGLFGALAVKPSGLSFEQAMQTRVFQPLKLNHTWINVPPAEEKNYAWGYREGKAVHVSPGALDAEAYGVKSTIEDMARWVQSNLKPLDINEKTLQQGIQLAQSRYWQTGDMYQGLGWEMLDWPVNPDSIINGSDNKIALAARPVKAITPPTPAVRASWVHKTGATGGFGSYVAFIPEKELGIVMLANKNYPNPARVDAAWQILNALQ
# test protocol: biochemical
# Format: biochemical
# experimental conditions: Table 4g; read-out: Ki (from multi- or single concentration measurements)
endpoint name: Ki (nM)
Give the value, in units of nM, as a plain number.

Ki reading for O=S(=O)(NCB(O)O)c1ccc(-c2nnn[nH]2)cc1C(F)(F)F : 0.05

---

Listed here are compounds together with their documented Selectivity vs AmpC (comparison of IC50 values).
# Tested on: Elastase
# test protocol: Elastase inhibition
# Type: biochemical
# experimental conditions: Table 4h, Elastase vs AmpC
# Description: To assess the selectivity of the new molecules we determined Ki values against three common serine proteases, Trypsin, Elastase and α-Chymotrypsin, as well as that of a class A β-lactamase, CTX-M-9 (Table 10) (Pouvreau L, et al. (1998), FEBS Lett 423:167-172; Del Mar E G, et al. (1980), Biochemistry 19:468-472; Rodriguez-Martinez J A, et al. (2009), Biotechnol Lett 31:883-887; Chen Y, et al. (2005), J Mol Biol 348:349-362).
Number only, please.

Use the examples below as a reference point.
1. O=S(=O)(NCB(O)O)c1ccc(-c2nn[nH]n2)cc1Cl :: 30784
2. O=S(=O)(NCB(O)O)c1ccc(-c2nnn[nH]2)cc1 :: 31309
3. O=S(=O)(NCB(O)O)c1ccc(-c2nn[nH]n2)nc1 :: 25799

Selectivity vs AmpC (comparison of IC50 values) reading for O=C(O)c1cccc(CS(=O)(=O)NCB(O)O)c1 : 22139

Selectivity vs AmpC (comparison of IC50 values) reading for O=S(=O)(NCB(O)O)c1ccc(-c2nnn[nH]2)cc1C(F)(F)F : 34091

---

# study target: AmpC β-lactamase (Escherichia coli)
# Construct: made in house
# Format: biochemical
# experimental conditions: enzyme incubation and dilution experiments
endpoint name: time dependence of inhibition (incubation effect, off-rate)

1. O=S(=O)(NCB(O)O)c1ccc(-c2nn[nH]n2)cc1Cl [CR190] :: slow off-rate
2. O=S(=O)(NCB(O)O)c1ccc(-c2nnn[nH]2)cc1C(F)(F)F [CR192] :: slow off-rate
3. O=S(=O)(NCB(O)O)c1ccc(-c2nn[nH]n2)c(Cl)c1 [CR191] :: slow off-rate

---

# study target: AmpC β-lactamase (Escherichia coli, UniProt P00811)
# Construct: made in house
# test protocol: biochemical
# Type: biochemical
# experimental conditions: Ki (from multi- or single concentration measurements), Table 4g
Assign labels as follows, please: rule met for Ki below 1 nM; rule not met for Ki equal to or exceeding 1 nM.

Please review the entries below; each comes with its answer.
1. O=S(=O)(NCB(O)O)c1ccc(-c2nn[nH]n2)cc1Cl [CR190] :: rule met
2. O=C(O)c1cccc(CS(=O)(=O)NCB(O)O)c1 [CR167] :: rule not met
3. O=S(=O)(NCB(O)O)c1ccc(-c2nnn[nH]2)cc1 [CR157] :: rule not met
4. O=S(=O)(NCB(O)O)c1ccc(-c2nn[nH]n2)nc1 [CR161] :: rule met

Now for another entry.
Could you please tell me whether Ki recorded for O=S(=O)(NCB(O)O)c1ccc(-c2nn[nH]n2)c(Cl)c1 [CR191] is less than 1 nM?
rule not met

---

# study target: CTX-M-9 β-lactamase (Escherichia coli)
# test protocol: biochemical
# Assay type: biochemical
endpoint name: pKi
In plain terms, pKi is the concentration in mol/L turned into minus its base-10 logarithm.

pKi reading for O=S(=O)(Cc1ccccc1)NCB(O)O : 5.60

---

# study target: AmpC β-lactamase (Escherichia coli, UniProt P00811)
# Construct: made in house
# test protocol: biochemical
# Type: biochemical
# experimental conditions: Ki, Table 5
endpoint name: Ki (nM)
Give the value, in units of nM, as a plain number.

1. O=C(O)c1cccc(CS(=O)(=O)NCB(O)O)c1 [CR167] :: 1.3
2. O=S(=O)(NCB(O)O)c1ccc(-c2nn[nH]n2)cc1Cl [CR190] :: 0.2

Ki reading for O=S(=O)(NCB(O)O)c1ccc(-c2nn[nH]n2)c(Cl)c1 [CR191] : 3

Ki reading for O=S(=O)(NCB(O)O)c1ccc(-c2nnn[nH]2)cc1 [CR157] : 1.2

Ki reading for O=S(=O)(NCB(O)O)c1ccc(-c2nn[nH]n2)nc1 [CR161] : 0.8

---

Listed here are molecules together with their documented IC50.
# study target: CTX-M-9 β-lactamase (Escherichia coli, UniProt Q9L5C8)
# Sequence (Q9L5C8 29-291): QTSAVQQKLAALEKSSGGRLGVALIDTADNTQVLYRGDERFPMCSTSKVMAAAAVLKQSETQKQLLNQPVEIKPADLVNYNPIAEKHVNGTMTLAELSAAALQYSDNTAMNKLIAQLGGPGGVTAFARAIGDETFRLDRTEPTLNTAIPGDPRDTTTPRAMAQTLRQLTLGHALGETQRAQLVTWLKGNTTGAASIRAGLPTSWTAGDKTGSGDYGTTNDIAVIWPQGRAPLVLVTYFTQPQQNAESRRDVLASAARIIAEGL
# test protocol: biochemical
# Type: biochemical
Give the value, in units of µM, as a plain number.

1. O=S(=O)(NCB(O)O)c1ccc(-c2nnn[nH]2)cc1C(F)(F)F :: 5
2. O=S(=O)(NCB(O)O)c1ccc(-c2nn[nH]n2)nc1 :: 6.7
3. O=C(O)c1cccc(CS(=O)(=O)NCB(O)O)c1 :: 0.125
4. O=S(=O)(NCB(O)O)c1ccc(-c2nn[nH]n2)cc1Cl :: 4

# value of IC50, CTX-M-9 β-lactamase (Escherichia coli, UniProt Q9L5C8), item O=S(=O)(NCB(O)O)c1ccc(-c2nn[nH]n2)c(Cl)c1 = 7

# value of IC50, CTX-M-9 β-lactamase (Escherichia coli, UniProt Q9L5C8), item O=S(=O)(NCB(O)O)c1ccc(-c2nnn[nH]2)cc1 = 10.5

---

Listed here are compounds together with their documented inhibition at 16 µM.
# study target: CTX-M-9 β-lactamase (Escherichia coli)
# test protocol: biochemical
# Format: biochemical
# experimental conditions: read-out: Percentage inhibition with 16 μM inhibitor
# Protocol: Reactions were initiated by the addition of 0.3 nM enzyme and monitored at 405 nm. […]
Give the value, in units of %, as a plain number.

Use the examples below as a reference point.
1. O=S(=O)(NCB(O)O)c1ccc(-c2nn[nH]n2)c(Cl)c1 [CR191] :: 70
2. O=C(O)c1cccc(CS(=O)(=O)NCB(O)O)c1 [CR167] :: 99
3. O=S(=O)(NCB(O)O)c1ccc(-c2nnn[nH]2)cc1C(F)(F)F [CR192] :: 77
4. O=S(=O)(NCB(O)O)c1ccc(-c2nn[nH]n2)cc1Cl [CR190] :: 81

Below: the item to evaluate.
inhibition at 16 µM reading for O=S(=O)(NCB(O)O)c1ccc(-c2nnn[nH]2)cc1 [CR157] : 73

---

Listed here are compounds together with their documented Ki.
# study target: AmpC β-lactamase (Escherichia coli)
# Construct: made in house
# test protocol: biochemical
# Assay type: biochemical
# experimental conditions: Ki Vs AmpC, Table 7
Give the value, in units of nM, as a plain number.

Use the examples below as a reference point.
1. Cc1ccc(S(=O)(=O)N(C)CB(O)O)cc1 :: 630
2. O=C(O)c1cccc(CS(=O)(=O)NCB(O)O)c1 :: 1.3
3. O=S(=O)(NCB(O)O)c1ccc(-c2nn[nH]n2)c(Cl)c1 :: 3

Below: the item to evaluate.
Ki reading for C[C@H](NS(C)(=O)=O)B(O)O : 650
